B1: glmS ribozyme (parent)
chain: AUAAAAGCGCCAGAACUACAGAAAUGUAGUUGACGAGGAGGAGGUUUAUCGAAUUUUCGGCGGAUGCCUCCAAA

- Variants of: B1
- EXPERIMENT: self-cleavage kobs at 160 uM GlcN6P; higher = faster cleavage; RNA array
- CONDITION INFO: with glucosamine-6-phosphate
Fewer inactive variants are shown than the library holds.
The variants listed here are annotated with their self-cleavage kobs at 160 uM GlcN6P.
MEASURED PARAMETER: self-cleavage kobs at 160 uM GlcN6P (s⁻¹)

>  <BIOPOLYMER SEQUENCE>
AUAAAAGCGCCAGAUCUACAGAAAUGUAGUUGAUGAGGAGGAGGUUUAUGGAAUUUUCGGCGGAUGCCUCCAAA [A15U C34U C50G]

>  <UNIT STRING>
s⁻¹

>  <REL>
=

>  <OBSERVED MEASUREMENT>
0.000153

$$$$
>  <BIOPOLYMER SEQUENCE>
AUAAAAGCGCCAGAACUACAGAAAUGUAGUUGACGAGGAGGAGGUUUAUGGAAUUUUCGGCGGAAGCCUCCAAA [C50G U65A]

>  <UNIT STRING>
s⁻¹

>  <REL>
=

>  <OBSERVED MEASUREMENT>
6.9e-05

$$$$
>  <BIOPOLYMER SEQUENCE>
AUAAAAGCGCCUGAACUACAGAAAUGUAGUUGACGAGGAGUAGGAUUAUCGAAUUUUCGGCGGAUGCCUCCAAA [A12U G41U U45A]

>  <UNIT STRING>
s⁻¹

>  <REL>
=

>  <OBSERVED MEASUREMENT>
0.00011

$$$$
>  <BIOPOLYMER SEQUENCE>
AUAAAAGAGCCAGAACUACAGAAAUGUAGUUGACGAGGCGGAGGUUUAUCGAAUUUUCGGCGGAUGCCUCCAAA [C8A A39C]

>  <UNIT STRING>
s⁻¹

>  <REL>
<

>  <OBSERVED MEASUREMENT>
1e-05

$$$$
>  <BIOPOLYMER SEQUENCE>
AUAAAAGCGCCAGAACUACAGAAAUGUAGUUGACGAGGCGGAGGUUUAUCUAAUUUUCGGCGGAUGCCUCAAAA [A39C G51U C71A]

>  <UNIT STRING>
s⁻¹

>  <REL>
<

>  <OBSERVED MEASUREMENT>
1e-05

$$$$
>  <BIOPOLYMER SEQUENCE>
AUAAAAGCGCCAGAACUACAGAAAUGUAGUUGACGAGUAGGAGGUUUAUCGAAUUUUCGGCGGAUGCCUGCAAA [G38U C70G]

>  <UNIT STRING>
s⁻¹

>  <REL>
=

>  <OBSERVED MEASUREMENT>
0.000289

$$$$
>  <BIOPOLYMER SEQUENCE>
AUAAAAGUGCCAGAACUACAGAAAUGUAGUUGACGAGGAGGAGGUUUAUCGAAUUUUCGUCGGAUGCUUCCAAA [C8U G60U C68U]

>  <UNIT STRING>
s⁻¹

>  <REL>
<

>  <OBSERVED MEASUREMENT>
1e-05

$$$$
>  <BIOPOLYMER SEQUENCE>
AUAAACGCGCCGGAACUACAGAAAUGUAGUUGACGAGGAGGAGGUUUAUCGAAUUUUCGGCGGAUGCGUGCAAA [A6C A12G C68G C70G]

>  <UNIT STRING>
s⁻¹

>  <REL>
<

>  <OBSERVED MEASUREMENT>
1e-05

$$$$
>  <BIOPOLYMER SEQUENCE>
AUAAAAGCGCCAGAACUACAGAAAUGUAGUUGACGAGGAGGAGGUUUAUCGAAUGUUCGGCGGAUGCCUCAAAA [U55G C71A]

>  <UNIT STRING>
s⁻¹

>  <REL>
=

>  <OBSERVED MEASUREMENT>
0.000541

$$$$
>  <BIOPOLYMER SEQUENCE>
AUAAAAGCGCCAGAACUACAGAAAUGUAGUUGACGAGGAUGAGGUUUAUCGAAUGUUCGGCGGAUGCCUCCAAA [G40U U55G]

>  <UNIT STRING>
s⁻¹

>  <REL>
=

>  <OBSERVED MEASUREMENT>
0.000149

$$$$
>  <BIOPOLYMER SEQUENCE>
AUAAAAGCGCCAGAACUACAGAAAUGUAGUUGACGAGGAGGAGGUUCAUCGAGUUUUCGGCGGAUGCCUCCAAA [U47C A53G]

>  <UNIT STRING>
s⁻¹

>  <REL>
=

>  <OBSERVED MEASUREMENT>
0.000176

$$$$
>  <BIOPOLYMER SEQUENCE>
AUAAAACCGCCAGAACUACAGAAAUGUAGUUGACGAGGAGGGGGUUUAUCGAAUUUUCGGCGGAUGCCUCCAAA [G7C A42G]

>  <UNIT STRING>
s⁻¹

>  <REL>
<

>  <OBSERVED MEASUREMENT>
1e-05

$$$$
>  <BIOPOLYMER SEQUENCE>
AUAAAAGCGCCAGAACUACAGAAAUGUAGUUGACGAGGAGGAGGAUUAUCGAAUUGUCGGCGGAUGCCUCCAAA [U45A U56G]

>  <UNIT STRING>
s⁻¹

>  <REL>
=

>  <OBSERVED MEASUREMENT>
0.00188

$$$$
>  <BIOPOLYMER SEQUENCE>
AUAAAAGCGCCAGAACUACAGAAAUGUAGAUUACGAGGAGGAGGUUUAUCGAAUUUUCGGCGGAUGCCUCCAAA [U30A G32U]

>  <UNIT STRING>
s⁻¹

>  <REL>
=

>  <OBSERVED MEASUREMENT>
3.89e-05

$$$$
>  <BIOPOLYMER SEQUENCE>
AUAAAAGCGCCAGAAUUACAGAAAUGUAGUUGACGAGGAGGAGGUUUAUCGAAUUUUCGGCGGAUGCCUCAAAA [C16U C71A]

>  <UNIT STRING>
s⁻¹

>  <REL>
=

>  <OBSERVED MEASUREMENT>
0.000667

$$$$
>  <BIOPOLYMER SEQUENCE>
AUAAAAGCGCCAGAACUACAGAAAUGUAAUUGACGAGGCGGAGGUUUAUCGAAUUUUCGGGGGAUGCCUCCAAA [G29A A39C C61G]

>  <UNIT STRING>
s⁻¹

>  <REL>
<

>  <OBSERVED MEASUREMENT>
1e-05

$$$$
>  <BIOPOLYMER SEQUENCE>
AUAAAAGCGCCAGAGCUACAGAAAUGUAGUUGACGAGGAGGAGGUUUAUCGAAUUCUCGGCGGAUGCCUCCAAA [A15G U56C]

>  <UNIT STRING>
s⁻¹

>  <REL>
=

>  <OBSERVED MEASUREMENT>
0.00017

$$$$
>  <BIOPOLYMER SEQUENCE>
AUAAAAGCGCCAGAACUACAGAAAUGUAAUUGACGAGGAGGCGGUUUAUCGAAUUUUCGGCGGAUGCCUCCAAA [G29A A42C]

>  <UNIT STRING>
s⁻¹

>  <REL>
<

>  <OBSERVED MEASUREMENT>
1e-05

$$$$
>  <BIOPOLYMER SEQUENCE>
AUAAAAGCGCCAGACCUACAGAAAUGUAGUUGACGAGGAGGAGGUUUAUCGAAUUUUCGGCGGAUGCCUGCAAA [A15C C70G]

>  <UNIT STRING>
s⁻¹

>  <REL>
=

>  <OBSERVED MEASUREMENT>
3.9e-05

$$$$
>  <BIOPOLYMER SEQUENCE>
AUAAAUGAGCCAGAACUACAGAAAUGUAGUUGACGAGGAGGAGGUUUAUCGAAUUUUCGGCGGAUGCCUCCAAA [A6U C8A]

>  <UNIT STRING>
s⁻¹

>  <REL>
<

>  <OBSERVED MEASUREMENT>
1e-05

$$$$
>  <BIOPOLYMER SEQUENCE>
AUAAAAGCGCCAGAACUACAGAAAUGUAGUUGACGAGGAGGAGGCUUAUUGAAUUUUCGGCGGAUGCCUCCAAA [U45C C50U]

>  <UNIT STRING>
s⁻¹

>  <REL>
<

>  <OBSERVED MEASUREMENT>
1e-05

$$$$
>  <BIOPOLYMER SEQUENCE>
AUAAAAGCGCCAGUACUACAGAAAUGUAGUUGACGAGGAGGAGGUUUAUCGAAUUUUAGGCGGAUGCCUCCAAA [A14U C58A]

>  <UNIT STRING>
s⁻¹

>  <REL>
=

>  <OBSERVED MEASUREMENT>
5.03e-05

$$$$
